# Assay system: DNA dC->dU-editing enzyme APOBEC-3F (Homo sapiens) (UniProt Q8IUX4)
# Sequence (Q8IUX4 whole entry, looked up): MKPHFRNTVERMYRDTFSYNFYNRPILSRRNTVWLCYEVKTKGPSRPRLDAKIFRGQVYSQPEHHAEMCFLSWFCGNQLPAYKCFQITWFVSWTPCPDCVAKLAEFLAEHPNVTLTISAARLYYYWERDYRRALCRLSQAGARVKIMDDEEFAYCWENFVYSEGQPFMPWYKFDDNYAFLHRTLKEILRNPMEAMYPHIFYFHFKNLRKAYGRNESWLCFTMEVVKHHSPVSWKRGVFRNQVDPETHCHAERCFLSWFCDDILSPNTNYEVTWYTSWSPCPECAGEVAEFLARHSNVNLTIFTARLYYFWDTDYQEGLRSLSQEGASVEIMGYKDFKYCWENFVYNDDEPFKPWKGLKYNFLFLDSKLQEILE
# Assay info: qHTS for inhibitors of Vif-A3F interactions: Cherry picks; note: nearly all actives have a fitted effect of over 70% in size; note: potency is the fitted concentration of half-maximal effect
# Condition details: HeLa A3F-eYFP + Vif, eYFP fluorescence, 24 h
The whole screen tested about 2,100 compounds, of which about 590 (28%) were called active. About 42% were inconclusive and are not listed. This is one part of the list.
Reported metric: Potency

Worked cases, answers included:
Compound	Assay system	Potency
COc1cc(N(C)C)c(OC)cc1/C=C/c1ccnc2ccccc12	DNA dC->dU-editing enzyme APOBEC-3F (Homo sapiens) (UniProt Q8IUX4)	20.6 µM (active)
COc1ccc2[nH]c3c(c2c1)CCNC3c1ccc([N+](=O)[O-])o1 (stereo unspecified)	DNA dC->dU-editing enzyme APOBEC-3F (Homo sapiens) (UniProt Q8IUX4)	23.1 µM (active)
CC(=O)c1cc(NC(=O)c2ccc(Cl)cc2)c(=O)oc1/C=C/N(C)C	DNA dC->dU-editing enzyme APOBEC-3F (Homo sapiens) (UniProt Q8IUX4)	6.27 µM (active)
COc1ccc2nc(SCC(=O)N3CC(=O)Nc4ccccc43)c(C#N)cc2c1	DNA dC->dU-editing enzyme APOBEC-3F (Homo sapiens) (UniProt Q8IUX4)	10.3 µM (active)
CCN1C(=S)SC(=O)C1=C1C=C(C)N(Cc2ccco2)C(C)=C1	DNA dC->dU-editing enzyme APOBEC-3F (Homo sapiens) (UniProt Q8IUX4)	17.7 µM (active)

Tell me reported Potency for `CCCN1C(=O)/C(=C\C=C2\N(CC)c3ccccc3C2(C)C)SC1=S` , tested with DNA dC->dU-editing enzyme APOBEC-3F (Homo sapiens) (UniProt Q8IUX4).
2.06 µM (active)

###

# Assay system: DNA dC->dU-editing enzyme APOBEC-3F (Homo sapiens) (UniProt Q8IUX4)
# Assay info: qHTS for inhibitors of Vif-A3F interactions: Cherry picks; note: nearly all actives have a fitted effect of over 70% in size;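 for max response: % of control where 0% means no effect; active compounds raise eYFP fluorescence by blocking Vif-driven A3F loss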
# Condition details: HeLa A3F-eYFP + Vif, eYFP fluorescence, 24 h
Out of some 2,100 compounds screened, about 590 (28%) were called active. About 42% were inconclusive and are not listed. The list shows a part of the results.
Reported metric: max response (%)
Field: numeric (%). Do not append units.

Illustrative cases are given below, each with its answer.
> print(dat)
                               input.smiles  recorded.number
1  CCOC(=O)c1c(C)oc2ccc(N(C(=O)c3ccncc3)S(=O)(=O)c3ccc(Br)cc3)cc12            -14.4
2           O=[N+]([O-])c1cc(Cl)c2cccnc2c1O             3.56
3  Cc1cc(-c2ccccc2)c2c3c(c(-c4ccccc4)n2n1)c(=O)n(C)c(=O)n3C            -9.86
4  CC(=O)Nc1ccc(Nc2c3c4c(cccc4n(C)c2=O)C(=O)c2ccccc2-3)cc1            -27.5
5                       NNC(=O)c1cc2sccc2s1            -9.98

Requested read-out max response, target or system DNA dC->dU-editing enzyme APOBEC-3F (Homo sapiens) (UniProt Q8IUX4), entry `S=c1[nH]nc(-c2cccnc2)n1/N=C/C(Cl)=C\c1ccccc1`
-29.6

Note, next up: `CN(C)c1ccc(/C=C/c2ccncc2)cc1`
-29.1

Record: `O=[N+]([O-])c1cc(O)c2ncccc2c1`
-7.28

Would you kindly repeat that for `S=C(NN=Cc1ccccn1)Nc1ccccn1` ?
1.89

Also, `N#Cc1ccccc1NC(=O)CSc1nc(-c2ccccc2)cc(C(F)(F)F)c1C#N` please.
-28.7

Same lookup for `N#Cc1c(C(F)(F)F)cc(-c2cccs2)nc1SCC(=O)Nc1cccc(Cl)c1` , please.
-7.91

###

# Assay system: DNA dC->dU-editing enzyme APOBEC-3F (Homo sapiens)
# Assay info: qHTS for inhibitors of Vif-A3F interactions: Cherry picks; note: nearly all actives have a fitted effect of over 70% in size;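 for max response: % of control where 0% means no effect; active compounds raise eYFP fluorescence by blocking Vif-driven A3F loss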
# Condition details: HeLa A3F-eYFP + Vif, eYFP fluorescence, 24 h
Screen size: about 2,100 compounds; about 590 (28%) were called active. Inconclusive results (about 42%) are left out. The list shows a part of the results.
Documented max response across a set of compounds
Your answer should be a plain number; it is taken to be in %.

The examples below pair each entry with its known result.
> print(dat)
                                   compound  recorded.number
1            O=C(N/N=C/C=C/c1ccco1)c1ccncc1           -0.284
2  CSc1cccc(NC(=O)c2cc3c(COC(C)=O)cnc(C)c3oc2=O)c1            -5.04
3  CN1/C(=C\C=C2/SC(=S)N(CC(=O)O)C2=O)C(C)(C)c2ccccc21            -6.86

Return max response measured with DNA dC->dU-editing enzyme APOBEC-3F (Homo sapiens) given this compound: `Cc1cccc(CSc2cccc3cccnc23)c1`
2.73

Please answer likewise for `COc1ccc(N/C=C/C(=O)c2sc(-c3ccccc3)nc2C)cc1`
-17.8

Please answer likewise for CC(C)CCNC(=O)c1ccc2c(c1)NC(=O)C(CS(=O)(=O)Cc1cccc(Br)c1)N2 (stereo unspecified)
0.102

Similarly, `Cc1ccccc1OCC(=O)N/N=C/c1ccc(N(C)C)cc1` ?
-27.7

Follow-up item: `N#Cc1c(Nc2ccccc2)[n+]([O-])c2ccc(Cl)cc2[n+]1[O-]`
-2.22

Please give the result for `COCc1ccc(O)c2ncccc12` too.
1.62

Also `CCN1C(=O)/C(=C/C=C2\N(CC)c3cc(S(=O)(=O)N(C)C)ccc3N2c2ccccc2)SC1=S` ?
-29.7

Also `Cc1ccc(S(=O)(=O)c2cc3ccccc3oc2=Nc2ccc3c(c2)OCO3)cc1` ?
-1.94

###

# Assay system: DNA dC->dU-editing enzyme APOBEC-3F (Homo sapiens)
# Assay info: qHTS for inhibitors of Vif-A3F interactions: Cherry picks; note: nearly all actives have a fitted effect of over 70% in size;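 for max response: % of control where 0% means no effect; active compounds raise eYFP fluorescence by blocking Vif-driven A3F loss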
# Condition details: HeLa A3F-eYFP + Vif, eYFP fluorescence, 24 h
Hit rate of the full screen: of about 2,100 compounds, about 590 (28%) were called active. Roughly 42% stayed inconclusive and do not appear here. The list shows a part of the results.
Where max response equals or exceeds -10%, the correct label is 1; where it does not, the label is -1.

> print(dat)
                           compound  group.label
1  CCCc1nc2c(C)cc(Br)cn2c1Cc1ccccc1           -1

Determine whether measured max response meets or exceeds -10% for COc1ccc(C2=NOC(C(=O)NCc3ccc(F)cc3)C2)cc1 (stereo not given)
-1

Proceed to `Cc1sc2nc(CSCC(=O)Nc3ccccc3C#N)[nH]c(=O)c2c1C`
-1

Then `O=C(Nc1ccc(N2CCOCC2)cc1)c1cccc2ccccc12` ?
-1

`CNC(=S)N/N=C/c1ccc(N2CCOCC2)s1` ?
-1

Continue with `CC(C)NC(=S)N/N=C1\CCCCc2ccccc21`
1

Now give it for COC(=O)C1=C(Nc2ccc(C)cc2)C=C(C)C(C(=O)OC)C1c1cccc(OC)c1 (stereo not given) too.
-1

###

# Potency values compiled below
# Assay system: DNA dC->dU-editing enzyme APOBEC-3F (Homo sapiens) (UniProt Q8IUX4)
# Assay info: qHTS for inhibitors of Vif-A3F interactions: Cherry picks; note: nearly all actives have a fitted effect of over 70% in size; note: potency is the fitted concentration of half-maximal effect
# Condition details: HeLa A3F-eYFP + Vif (tagged APOBEC3F with the HIV-1 protein that degrades it), eYFP fluorescence, 24 h
Among all 2,100 compounds or so, about 590 (28%) were called active. About 42% were inconclusive and are not listed. The list shows a part of the results.

Worked cases, answers included:
> print(dat)
                                   compound                              assay.system            result
1  Cc1cc(N2CCN(c3ccc([N+](=O)[O-])c4cccnc34)CC2)c2ccccc2n1  DNA dC->dU-editing enzyme APOBEC-3F (Homo sapiens) (UniProt Q8IUX4)  10.3 µM (active)
2  CCOC(=O)Cc1csc(NC(=O)c2sc3nc4c(C)cc(C)cc4cc3c2N)n1  DNA dC->dU-editing enzyme APOBEC-3F (Homo sapiens) (UniProt Q8IUX4)  20.6 µM (active)
3  N#Cc1c(C(F)(F)F)cc(-c2ccccc2)nc1SCc1nc(N)nc(N2CCOCC2)n1  DNA dC->dU-editing enzyme APOBEC-3F (Homo sapiens) (UniProt Q8IUX4)   5.8 µM (active)
4  O=C1Nc2ccc(Br)cc2C12NNc1ccccc1O2 (stereo not given)  DNA dC->dU-editing enzyme APOBEC-3F (Homo sapiens) (UniProt Q8IUX4)    14 µM (active)

I'd like to know its Potency. The compound in question is `Cc1cc(C)c(NC(=O)Cn2c(=O)n(Cc3ccc(C(=O)NCc4ccco4)cc3)c(=O)c3sccc32)c(C)c1`
14.6 µM (active)
